Molecular target: Keap1-Maltose Binding Protein (MBP tag) (Homo sapiens)
Sequence (Q14145 whole entry): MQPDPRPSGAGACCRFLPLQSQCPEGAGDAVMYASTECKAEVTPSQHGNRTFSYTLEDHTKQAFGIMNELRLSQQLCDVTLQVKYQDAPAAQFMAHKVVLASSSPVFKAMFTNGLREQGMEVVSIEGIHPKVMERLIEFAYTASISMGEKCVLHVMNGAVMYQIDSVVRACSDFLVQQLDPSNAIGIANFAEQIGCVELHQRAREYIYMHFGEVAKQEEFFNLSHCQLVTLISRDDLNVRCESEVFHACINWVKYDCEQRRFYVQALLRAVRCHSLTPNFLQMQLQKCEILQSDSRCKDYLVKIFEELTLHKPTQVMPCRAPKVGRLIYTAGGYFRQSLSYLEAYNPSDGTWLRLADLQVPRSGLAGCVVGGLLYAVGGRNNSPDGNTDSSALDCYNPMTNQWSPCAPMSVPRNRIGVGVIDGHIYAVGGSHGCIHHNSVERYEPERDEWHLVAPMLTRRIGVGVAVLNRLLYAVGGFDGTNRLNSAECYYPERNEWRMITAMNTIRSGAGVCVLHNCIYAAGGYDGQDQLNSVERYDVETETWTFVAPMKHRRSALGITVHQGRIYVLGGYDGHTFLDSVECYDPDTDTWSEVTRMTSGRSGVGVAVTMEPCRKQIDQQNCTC
Experiment: Nrf2-Keap1 HTRF (TR-FRET) binding assay: displacement of biotinylated ETGE peptide from Keap1-MBP
Details: HTRF (TR-FRET); displacement of ETGE-biotin from Keap1-MBP; values banded into grades; read-out: Binding (IC50) ETGE-Keap1
pIC50: −log10 of the molar value. Starred links: 1 amine or outer side, 2 acyl side, 3 side chain; linkers in the order of their positions; H or OH if unused. Positions of bridges follow the written chain, without caps; N, C: chain ends. Residues, ends and D or L forms follow the SMILES beside them. *: point of attachment. oXylylene = c1ccc(C[*:2])c(C[*:1])c1; X6 = c1ccc2nc(C[*:2])c(C[*:1])nc2c1; Stearoyl = CCCCCCCCCCCCCCCCCC(=O)*; βAla = NCCC(=O)O
assayMetric: pIC50

molecule: CCCCCCCCCCCCCCCCCC(=O)NCCC(=O)N[C@@H](CC(C)C)C(=O)N[C@@H](CCC(N)=O)C(=O)N[C@H]1CSCc2nc3ccccc3nc2CSC[C@@H](C(=O)N[C@@H](CC(C)C)C(=O)N2CCC[C@H]2C(N)=O)NC(=O)[C@H](CCC(=O)O)NC(=O)CNC(=O)[C@H]([C@@H](C)O)NC(=O)[C@H](CCC(=O)O)NC(=O)[C@@H]2CCCN2C(=O)[C@H](CC(=O)O)NC1=O [Example 61] ({Stearoyl-βAla}-LQCDPETGECLP-NH2; linker 3-10 via X6)
pIC50: 7.00 to 9.00

Moving on to the next molecule.
pIC50 reported for this molecule CCCCCCCCCCCCCCCCCC(=O)NCCC(=O)N[C@@H](CC(C)C)C(=O)N[C@@H](CCC(N)=O)C(=O)N[C@H]1CSCc2ccccc2CSC[C@@H](C(=O)N[C@@H](CC(C)C)C(=O)N2CCC[C@H]2C(N)=O)NC(=O)[C@H](CCC(=O)O)NC(=O)CNC(=O)[C@H]([C@@H](C)O)NC(=O)[C@H](CCC(=O)O)NC(=O)[C@@H]2CCCN2C(=O)[C@H](CC(=O)O)NC1=O [Example 48] ({Stearoyl-βAla}-LQCDPETGECLP-NH2; linker 3-10 via oXylylene) : 7.00 to 9.00

Recorded values, source patent US20200255478A1.
